Data provenance: the supplement of paper PMC9170038

- Tested on: K4 kissing-loop RNA reporter;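 also: bound reporter read as fluorescence of individual clusters on recovered sequencing chips by microscopy, with normalized cluster intensities fitted with a binding model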
- protocol: apparent KD of K4 kissing-loop reporter; higher = weaker reporter binding
- cond: Eterna round: R107; input ligand: arginine 13.2 mM

- sequence.input: "GCCGUACGCAUGGAUACCAGAGAUGUUAGUCUCGAUGCCAGUGAUGUUGGCUAUAGCAUACUCCCUUGGCAGCCAUGCGUACGGC"
  apparent KD of K4 kissing-loop reporter, nM: 113
- sequence.input: "UUACGCGGCAUAGAUACCAGCAAUGCAGGAUAGGUCAAGAGUGAUGUUCUGAUACUUGGGUGCCCUUGGCAGCUAGACGAUAACA [theeternabot_sameState_KL_Theo_B_46]"
  apparent KD of K4 kissing-loop reporter, nM: 449
- sequence.input: "UGAUAGGACAGAAGGAGCGAGGAGUGAUGUUCCUCAAAAGGUCUAGCAAAGCUAGACCCUCCUCAGGUAGGUCGCUGUCCUAUCU [ArgBX 1 #Palindromic #SwitchBubble #StaticStem]"
  apparent KD of K4 kissing-loop reporter, nM: 162

====

- Tested on: MS2 coat protein
- protocol: apparent KD of MS2 coat protein; designed switch direction (-1 OFF switch, 1 ON switch): -1; higher = weaker reporter binding
- cond: input ligand: FMN 200 uM
// class 0 strictly below 200 nM in apparent KD of MS2 coat protein; class 1 otherwise

- sequence.input: "UACUUCUGAGGAUAUACAUAGAUUUACAUGAGGAUCACCCAUGUUCCUCUUUGUAUAAAUGUAGAAGGCAGAAGAU [Mat - Exclusion 5 - JL Mod - D74] (Eterna round: R97, puzzle: Exclusion 5)"
  study.system: "MS2 coat protein"
  discrete.label: "class 0"
- sequence.input: "CCUAUGUGAGGAUAUGGUGUUGGCCACAAGGAAAAGCUCCUCCAGAAGGCACAUGAGGAUCACCCAUGUCGUGG [Jolly's Folly 25 - Jieux - Exclusion 4] (Eterna round: R96, puzzle: Exclusion 4)"
  study.system: "MS2 coat protein"
  discrete.label: "class 1"
- sequence.input: "AAUUCGAGAGGAUAUACAGGUGAUAUGUAGAAGCCUCGAGCACAUGAGGAUCACCCAUGUAGAAGGCUCAUAUA [EX2 A.11] (Eterna round: R97, puzzle: Exclusion 2)"
  study.system: "MS2 coat protein"
  discrete.label: "class 1"
- sequence.input: "AUUUUGUCAGGAUAUUAGUAGUAAAUAAAUAAAAUUAUUACUGAGAAGGGACAUGAGGAUCACCCAUGUGUCUU [Salish 062 v9] (Eterna round: R97, puzzle: Exclusion 4)"
  study.system: "MS2 coat protein"
  discrete.label: "class 0"
- sequence.input: "CGAUGCUCGAAUCCACAUGAGGAUCACCCAUGUCGAGUUAGCGAGGAUAUCGGUGACACAUAGUAUGAGAAGGCGCGAACCUGA [Ex NG3 #24] (Eterna round: R96, puzzle: Exclusion NG 3)"
  study.system: "MS2 coat protein"
  discrete.label: "class 0"

====

Listed below: apparent KD of MS2 coat protein values for each entry.
- Tested on: MS2 coat protein
- protocol: apparent KD of MS2 coat protein; designed switch direction (-1 OFF switch, 1 ON switch): -1; higher = weaker reporter binding
- cond: Eterna round: R95; input ligand: none

- sequence.input: "GAAAAGGUAGGAUAUACGAAAAAAAAGGGUAGAAUAAAAACACAUGAGGAUCACCCAUGUAGAAGGACCAAAAG [salish99_ex2_r3_077] (puzzle: Exclusion 2)"
  apparent KD of MS2 coat protein (nM): 28.9
- sequence.input: "AAAAGGCAGCAGGAUAUAGUCACCAUCGGGUUGCUAGAAGGGCUAACAUGAGGAUCACCCAUGUGGGUGCAAAA [Soinsoan] (puzzle: Exclusion 6)"
  apparent KD of MS2 coat protein (nM): 667
- sequence.input: "GAAAAGGUAGGAUAUACGAAAAAAAAGGGUAGAAAAAAAAUACAUGAGGAUCACCCAUGUAGAAGGACCAAAAG [salish99_ex2_r3_060] (puzzle: Exclusion 2)"
  apparent KD of MS2 coat protein (nM): 22.5
